target: UniProt P00533
Sequence (P00533 whole entry, looked up): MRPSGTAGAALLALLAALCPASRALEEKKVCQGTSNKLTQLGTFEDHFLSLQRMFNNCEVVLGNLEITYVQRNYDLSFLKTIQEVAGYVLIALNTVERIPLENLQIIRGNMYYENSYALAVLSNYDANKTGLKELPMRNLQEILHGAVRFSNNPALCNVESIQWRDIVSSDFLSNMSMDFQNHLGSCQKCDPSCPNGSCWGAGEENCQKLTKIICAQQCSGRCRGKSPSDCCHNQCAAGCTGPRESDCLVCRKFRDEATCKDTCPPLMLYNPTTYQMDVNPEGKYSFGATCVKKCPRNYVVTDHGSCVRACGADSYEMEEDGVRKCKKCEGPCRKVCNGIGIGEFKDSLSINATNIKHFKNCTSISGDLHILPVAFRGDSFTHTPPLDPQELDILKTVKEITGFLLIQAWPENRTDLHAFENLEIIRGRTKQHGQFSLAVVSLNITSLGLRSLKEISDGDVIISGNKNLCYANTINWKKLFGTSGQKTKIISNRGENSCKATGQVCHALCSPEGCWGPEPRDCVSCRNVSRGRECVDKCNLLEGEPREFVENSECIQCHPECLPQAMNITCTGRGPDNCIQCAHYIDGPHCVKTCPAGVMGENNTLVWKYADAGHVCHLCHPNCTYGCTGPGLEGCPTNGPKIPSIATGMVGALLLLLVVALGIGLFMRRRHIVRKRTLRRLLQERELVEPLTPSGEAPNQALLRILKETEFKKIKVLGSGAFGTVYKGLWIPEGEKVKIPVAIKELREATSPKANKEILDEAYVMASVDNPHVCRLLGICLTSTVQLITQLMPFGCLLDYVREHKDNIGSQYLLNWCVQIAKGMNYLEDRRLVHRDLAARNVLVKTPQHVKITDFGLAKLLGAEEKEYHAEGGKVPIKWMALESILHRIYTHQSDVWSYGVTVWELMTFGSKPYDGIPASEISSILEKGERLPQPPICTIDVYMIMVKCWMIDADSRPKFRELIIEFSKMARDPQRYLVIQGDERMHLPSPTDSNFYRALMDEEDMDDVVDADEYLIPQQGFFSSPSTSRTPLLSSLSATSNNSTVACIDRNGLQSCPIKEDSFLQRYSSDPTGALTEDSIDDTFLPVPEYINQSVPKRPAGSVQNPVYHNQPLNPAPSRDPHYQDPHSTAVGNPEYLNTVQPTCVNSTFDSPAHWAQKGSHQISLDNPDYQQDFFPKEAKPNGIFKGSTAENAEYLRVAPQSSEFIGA
pIC50: −log10 of the molar value.
Class (by pIC50) -- I: < 7; II: ≥ 7 and < 9; III: ≥ 9

- Sample smiles: "Nc1ccc2ncnc(Nc3cccc(C(F)(F)F)c3)c2c1"
  Label value: "I"
- Sample smiles: "OCN(CO)N1=CC=C2N=CN=C(Nc3cccc(Br)c3)C2=C1"
  Label value: "II"
- Sample smiles: "CC(=O)Nc1cc2ncnc(Nc3cccc(Br)c3)c2cn1"
  Label value: "II"
- Sample smiles: "Nc1cc2ncnc(Nc3cccc(F)c3)c2cn1"
  Label value: "I"
- Sample smiles: "CN(C)c1ccc2c(Nc3cccc(Br)c3)ncnc2n1"
  Label value: "I"
- Sample smiles: "Brc1cccc(Nc2ncnc3cnc(NCCc4c[nH]cn4)nc23)c1"
  Label value: "III"
- Sample smiles: "CNc1ccc2ncnc(Nc3cccc(Br)c3)c2n1"
  Label value: "II"
- Sample smiles: "COc1cc2ncnc(Nc3cccc(Br)c3)c2cn1"
  Label value: "II"
- Sample smiles: "Nc1cc2ncnc(Nc3cccc(Br)c3)c2cc1N"
  Label value: "III"
